Cited source for all entries: PubChem BioAssay AID1794808

- Test system: Plasmodium falciparum apicoplast DNA polymerase (apPOL)
- experiment: Pf-apPOL inhibitors, biochemical, fluorescence (AID 1794808)
- experimental.setup: Recombinant Pf-apPOL, molecular beacon fluorescence, 1.5 h; at 10 µM; stronger effect = higher value
Hit rate of the full screen: of about 210,000 compounds, about 520 (0.25%) were called active. The sample as a whole holds a higher share of actives than the screen did.
Here the recorded inhibition is given for each entry.
Output spec: scalar in %, unitless text.

# count of solved cases: 10
molecule="CC(C)CC1=NN(C(=O)c2cccc(Cl)c2)C(O)(C(F)(F)F)C1 (stereo not drawn)" unit_of_measurement=% quantitative_result=2
molecule=CCCCOc1ccccc1/C=c1\sc2ncnn2c1=O unit_of_measurement=% quantitative_result=10.1
molecule="CCOC(=O)N1CCc2nn(CC(=O)NC(C)CCc3ccccc3)c(=O)cc2C1 (stereo not drawn)" unit_of_measurement=% quantitative_result=-4.2
molecule="COc1ccc(CCNC(=O)C2c3ccccc3C(=O)N2Cc2ccc(C)cc2)cc1OC (stereo not drawn)" unit_of_measurement=% quantitative_result=-9.1
molecule="CCCNc1cc(N2CCCC(CCC(=O)Nc3ccc4c(c3)OCCO4)C2)ncn1 (stereo not drawn)" unit_of_measurement=% quantitative_result=-2.1
molecule="CC1C(=O)N(c2cccc(F)c2)CCN1C(=O)c1ccc(Cl)cc1 (stereo not drawn)" unit_of_measurement=% quantitative_result=-2.7
molecule=CCn1c(-c2cc(NC(=O)c3ccncc3)n[nH]2)cc2ccccc21 unit_of_measurement=% quantitative_result=-0.8
molecule=COc1cccc(-c2n[nH]c(C)c2NC(=O)C(C)C)c1 unit_of_measurement=% quantitative_result=-6.9
molecule=Cc1cccc(NC(=O)CSc2nccn2C)c1C unit_of_measurement=% quantitative_result=-4.4
molecule=CC(C)(C)C(=O)Oc1ccc(C=Cc2ccccn2)cc1 unit_of_measurement=% quantitative_result=-22

Exercise: Given CN(C)c1ccc(/C=C(\C#N)c2ccc([N+](=O)[O-])cc2)cc1Br , state its recorded inhibition.
Solution: -5.5

Exercise: Given CC(C)(C)C(O)CCNC(=O)C(=O)NCc1ccccc1 (stereo not drawn) , state its recorded inhibition.
Solution: -5.8

Exercise: Given CCN(CC)CCNC(=O)C(=O)NCC1OCCN1S(=O)(=O)c1ccc(F)cc1 (stereo not drawn) , state its recorded inhibition.
Solution: -1.4

Exercise: Given CCn1ccc(C(=O)N2CCCC2c2cccc(F)c2)n1 (stereo not drawn) , state its recorded inhibition.
Solution: -3.5

Exercise: Given Cn1nc(-c2nnc(-c3ccccc3Cl)o2)c2c1CCN(C(=O)CCc1ccccc1)C2 , state its recorded inhibition.
Solution: -2.8

Exercise: Given Cc1cccc(N2CCN(C(=O)c3ccc(F)cc3)C(C)C2=O)c1 (stereo not drawn) , state its recorded inhibition.
Solution: 0.4

Exercise: Given COc1ccc(C(O)=C2C(=O)C(=O)N(CCN3CCOCC3)C2c2ccccc2F)cc1OC (stereo not drawn) , state its recorded inhibition.
Solution: -2.5

###

- System: Plasmodium falciparum apicoplast DNA polymerase (apPOL)
- experiment: Pf-apPOL inhibitors, biochemical, fluorescence (AID 1794808)
- experimental.setup: Recombinant Pf-apPOL, molecular beacon fluorescence, 1.5 h; at 10 µM; stronger effect = higher value
The whole screen tested about 210,000 compounds, of which about 520 (0.25%) were called active. This excerpt belongs to a sample that is enriched for actives.
Here the recorded inhibition is given for each entry.
Output spec: scalar in %, unitless text.

# count of solved cases: 4
compound=COc1ccc(-c2cn3c4c(=O)n(C)c(=O)n(C)c4nc3n2CCO)cc1 parameter=inhibition quantitative_result=-0.7
compound=O=C1CC2(CCN(C(=O)C=Cc3ccccc3)CC2)Oc2ccccc21 parameter=inhibition quantitative_result=-17.9
compound=COc1ccc(-c2c3c(=O)n(C)c(=O)n(C)c3cn2-c2ccc(Br)cc2)cc1 parameter=inhibition quantitative_result=73.4
compound="O=[N+]([O-])c1ccc(C2SCCN2S(=O)(=O)c2ccccc2)cc1 (stereo not given)" parameter=inhibition quantitative_result=-2.9

Alright, here's another compound for you.
Exercise: Given CCCCOc1ccc(S(=O)(=O)N2CCSC2c2ccccc2)cc1 (stereo not given) , state its recorded inhibition.
Solution: -1.1

###

- System: Plasmodium falciparum apicoplast DNA polymerase (apPOL)
- experiment: Pf-apPOL inhibitors, biochemical, fluorescence (AID 1794808)
- experimental.setup: Recombinant Pf-apPOL, molecular beacon fluorescence, 1.5 h; at 10 µM
The whole screen tested about 210,000 compounds, of which about 520 (0.25%) were called active. Rule as the data show it: active = inhibition above about 50%; inactive = the rest. Only a selection was taken, and actives are over-represented in it overall.
Form entry, call: pick from 1 for active, -1 for inactive

molecule="CN1CCC(N2CCN(C(=O)C3CCc4sc(C(=O)N5CCCC5)cc4C3)CC2)CC1 (stereo not drawn)" category_label=-1

Exercise: What was the test verdict on COc1ccc(C(C)=C2SC(=S)N(CCC(=O)O)C2=O)cc1 ?
Solution: -1

Exercise: What was the test verdict on CCN(CC)C(=O)C1CCCN(Cc2ccccc2OC)C1 (stereo not drawn) ?
Solution: -1

Exercise: What was the test verdict on O=C(Nc1nnc(CSCc2ccccc2)s1)c1ccc(F)cc1 ?
Solution: -1

Exercise: What was the test verdict on N#CC(C#N)=C1SCN(c2cccc(Cl)c2)CS1 ?
Solution: 1

Exercise: What was the test verdict on O=C(NCCc1ccccc1)C1CCN(CC2CCCCC2)CC1 ?
Solution: -1

Exercise: What was the test verdict on CC12CC3(C)CC(C)(C1)CC(C(=O)Nc1ccc(F)c(Cl)c1)(C2)C3 ?
Solution: -1

Exercise: What was the test verdict on O=C(Nc1ccc(Cl)cc1)NC1(C(F)(F)F)Oc2ccccc2O1 ?
Solution: -1

###

- Test system: Plasmodium falciparum apicoplast DNA polymerase (apPOL)
- experiment: Pf-apPOL inhibitors, biochemical, fluorescence (AID 1794808)
- experimental.setup: Recombinant Pf-apPOL, molecular beacon fluorescence, 1.5 h; at 10 µM; stronger effect = higher value
Hit rate of the full screen: of about 210,000 compounds, about 520 (0.25%) were called active. The full list was thinned out, with actives kept by preference.
parameter: inhibition (%)
Output spec: scalar in %, unitless text.

molecule=O=Cc1ccc(OCc2ccc(I)cc2)cc1 unit_of_measurement=% quantitative_result=-6.6
molecule=C=CCNC(=O)CCSc1ccc(Cl)cc1 unit_of_measurement=% quantitative_result=0.6
molecule=O=C(Cn1nnc2ccccc21)NCCSCc1ccco1 unit_of_measurement=% quantitative_result=9.1

Exercise: Given O=C(NC1CCCCC1)c1ccccc1NC(=O)C1COc2ccccc2O1 (stereo unspecified) , state its recorded inhibition.
Solution: -3.8

Exercise: Given O=C(CCCn1cccc1)Nc1nc(-c2ccco2)cs1 , state its recorded inhibition.
Solution: 0.6

Exercise: Given O=C(Nc1ccncc1)c1ccc([N+](=O)[O-])cc1Cl , state its recorded inhibition.
Solution: 0.3

Exercise: Given COCC(=O)N1CCCCC1c1nncn1CC1CC1 (stereo unspecified) , state its recorded inhibition.
Solution: 3.4

Exercise: Given O=C(COc1ccc(Cl)cc1)N1CCC(N2CCCCCC2)CC1 , state its recorded inhibition.
Solution: -3.8

Exercise: Given O=C1C(Nc2ccccc2)=CC(c2ccc([N+](=O)[O-])cc2)N1c1ccccc1 (stereo unspecified) , state its recorded inhibition.
Solution: 8.9

Exercise: Given CCOC(=O)c1ccc(NS(=O)(=O)c2c[nH]c(=O)[nH]c2=O)cc1 , state its recorded inhibition.
Solution: -10.5

Exercise: Given Cc1cc(C)nc(Nc2nc(CC(=O)Nc3nc(-c4ccco4)cs3)cs2)n1 , state its recorded inhibition.
Solution: 69.6

Exercise: Given COc1ccc(NS(=O)(=O)c2c(C)cc(C)cc2C)c([N+](=O)[O-])c1 , state its recorded inhibition.
Solution: -4

Exercise: Given O=C(c1ccncc1)N1CCCC(c2nc(-c3ccc(F)cc3)n[nH]2)C1 (stereo unspecified) , state its recorded inhibition.
Solution: 10

Exercise: Given O=c1c(O)c(Br)ccc2c(Br)c(O)c(O)c(O)c12 , state its recorded inhibition.
Solution: 99.5

Exercise: Given COc1cc(Cl)c(NC(=O)C2CCCN(c3nccc(C)n3)C2)c(OC)c1 (stereo unspecified) , state its recorded inhibition.
Solution: 2.3

Exercise: Given COc1cccc(-c2cc3n(n2)CCCN(C(=O)Cc2ccsc2)C3)c1 , state its recorded inhibition.
Solution: -7.6

Exercise: Given O=Cc1ccc(OCc2cccc(F)c2)c(Cl)c1 , state its recorded inhibition.
Solution: 1.2

Exercise: Given Cc1cc(C)cc(-c2nc(-c3ccc4c(c3)oc(=O)n4C)no2)c1 , state its recorded inhibition.
Solution: 0.7

Exercise: Given O=C(Nc1cccs1)N1CCN(c2ccc(-c3ccco3)nn2)CC1 , state its recorded inhibition.
Solution: 64.3

Exercise: Given COc1ccc(CCNC(=O)C2CC(=O)N(c3ccc(F)c(Cl)c3)C2)cc1OC (stereo unspecified) , state its recorded inhibition.
Solution: 4.9

Exercise: Given Cc1nc(-c2ccccc2F)sc1C(=O)N1CCCC1 , state its recorded inhibition.
Solution: -7.4

Exercise: Given Cc1ccc(F)c(NC(=O)CCc2ccccc2)c1 , state its recorded inhibition.
Solution: -10.7

Exercise: Given O=C(Nc1ncc(Cc2cccc(C(F)(F)F)c2)s1)c1ccc(-n2cnnn2)cc1 , state its recorded inhibition.
Solution: -2.3

Exercise: Given CC(C=CC=C(C)C(=O)OC1OC(COC2OC(CO)C(O)C(O)C2O)C(O)C(O)C1O)=CC=CC=C(C)C=CC=C(C)C(=O)OC1OC(COC2OC(CO)C(O)C(O)C2O)C(O)C(O)C1O (stereo unspecified) , state its recorded inhibition.
Solution: -1.1

Exercise: Given CCOc1ccc(-c2cc3n(n2)CCCN(C(=O)c2ccccn2)C3)cc1 , state its recorded inhibition.
Solution: -2.1

Exercise: Given O=C(Nc1cccs1)N1CCN(C(=O)C2CCCO2)CC1 (stereo unspecified) , state its recorded inhibition.
Solution: 0.6

Exercise: Given Cc1cccc(CN2CCCn3nc(C(=O)Nc4ccccc4C)cc3C2=O)c1 , state its recorded inhibition.
Solution: -2.2
